Biological target: A*02:02
Assay: SPR; low fitting confidence
Overview of recorded Kd for various binders

Prompt line: Entry AS170036 VL1VH1-98I108A (scFv) scFv: QSALTQPRSVSGSPGQSVTISCAGTSSDVGSENYVSWYQQHPGKAPKLMIYQVNKRASGVPDRFSGSKSGNTASLTISGLQAEDEADYYCASYRSSDINIVFGGGTKLTVLGGGGSGGGGSGGGGSEVQLVESGGGLVQPGGSLRLSCAASGFTFSSYAMSWVRQAPGKGLEWVSTINSGTGSPYYADSVKGRFTISRDNSKNTLYLQMNSLRAEDTAVYYCAKNFFDGSWFLAPPAMDYWGQGTLVTVSSHHHHHH : reported Kd = ?
Response line: > 530 nM

Prompt line: Entry AS170036 VL1VH1-57K108S (scFv) scFv: QSALTQPRSVSGSPGQSVTISCAGTSSDVGSENYVSWYQQHPGKAPKLMIYQVNKRASGVPDRFSGSKSGNTASLTISGLQAEDEADYYCASYRSSDHNIVFGGGTKLTVLGGGGSGGGGSGGGGSEVQLVESGGGLVQPGGSLRLSCAASGFTFSSYAMSWVRQAPGKGLEWVSTINSGTGKPYYADSVKGRFTISRDNSKNTLYLQMNSLRAEDTAVYYCAKNFFDGSWFLSPPAMDYWGQGTLVTVSSHHHHHH : reported Kd = ?
Response line: > 1400 nM

Prompt line: Entry AS170036 VL1VH1 (scFv) scFv: QSALTQPRSVSGSPGQSVTISCAGTSSDVGSENYVSWYQQHPGKAPKLMIYQVNKRASGVPDRFSGSKSGNTASLTISGLQAEDEADYYCASYRSSDHNIVFGGGTKLTVLGGGGSGGGGSGGGGSEVQLVESGGGLVQPGGSLRLSCAASGFTFSSYAMSWVRQAPGKGLEWVSTINSGTGSPYYADSVKGRFTISRDNSKNTLYLQMNSLRAEDTAVYYCAKNFFDGSWFLGPPAMDYWGQGTLVTVSSHHHHHH : reported Kd = ?
Response line: > 1500 nM

Origin of measurements: patent US20240279318A1
